system: NEC8 (Other Solid Carcinomas); assay: Bliss excess, mean over the matrix (fraction); higher = more synergy;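 further: after 72 h of two-drug dosing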
Answer not met if Bliss excess is under 0.02, and met if it is 0.02 or more.

Could you verify whether the entry CN(CCO)CC[C@H](CSc1ccccc1)Nc1ccc(S(=O)(=O)NC(=O)c2ccc(N3CCC([C@@H](O)c4ccccc4-c4ccc(Cl)cc4)CC3)cc2)cc1S(=O)(=O)C(F)(F)F [AZD4320] + C1CN(CCC1(C(=O)N[C@@H](CCO)C2=CC=C(C=C2)Cl)N)C3=NC=NC4=C3C=CN4 [Capivasertib] (first compound max 1 µM, 7x7, partner max 3 µM) shows Bliss excess of no less than 0.02?
not met

Could you please find out whether CC1(C)CCC(CN2CCN(c3ccc(C(=O)NS(=O)(=O)c4ccc(NCC5CCOCC5)c([N+](=O)[O-])c4)c(Oc4cnc5[nH]ccc5c4)c3)CC2)=C(c2ccc(Cl)cc2)C1 [Venetoclax] + Cc1cc2ncnn2cc1Nc1ncc2c(n1)n(C1CCOCC1)c(=O)n2C [AZD7648] (first compound max 1 µM, 7x7, partner max 10 µM) has Bliss excess that meets 0.02 or exceeds it?
met

Textbook exercise: given the entry CCc1c2c(nc3ccc(O)cc13)-c1cc3c(c(=O)n1C2)COC(=O)[C@]3(O)CC [SN-38] + O=C(c1cc(Cc2n[nH]c(=O)c3ccccc23)ccc1F)N1CCN(C(=O)C2CC2)CC1 [Olaparib] (first compound max 0.3 µM, 7x7, partner max 10 µM) , state whether its Bliss excess is greater than or equal to 0.02.
met

Determine whether measured Bliss excess meets or exceeds 0.02 for CC1(C)CCC(CN2CCN(c3ccc(C(=O)NS(=O)(=O)c4ccc(NCC5CCOCC5)c([N+](=O)[O-])c4)c(Oc4cnc5[nH]ccc5c4)c3)CC2)=C(c2ccc(Cl)cc2)C1 [Venetoclax] + C[C@@H](Nc1cc(F)cc(F)c1)c1cc(C(=O)N(C)C)cc2c(=O)cc(N3CCOCC3)oc12 [AZD8186] (first compound max 1 µM, 7x7, partner max 3 µM)
not met

Does the reported Bliss excess for CN(CCO)CC[C@H](CSc1ccccc1)Nc1ccc(S(=O)(=O)NC(=O)c2ccc(N3CCC([C@@H](O)c4ccccc4-c4ccc(Cl)cc4)CC3)cc2)cc1S(=O)(=O)C(F)(F)F [AZD4320] + C=CCn1c(=O)c2cnc(Nc3ccc(N4CCN(C)CC4)cc3)nc2n1-c1cccc(C(C)(C)O)n1 [AZD1775] (first compound max 1 µM, partner max 1 µM) fall at or above the 0.02 mark?
met

Answer whether Bliss excess of Cn1cnc2c(F)c(Nc3ccc(Br)cc3Cl)c(C(=O)NOCCO)cc21 [Selumetinib] + C=CCn1c(=O)c2cnc(Nc3ccc(N4CCN(C)CC4)cc3)nc2n1-c1cccc(C(C)(C)O)n1 [AZD1775] (first compound max 10 µM, partner max 1 µM) is greater than or equal to 0.02.
not met

Has Cc1cc2ncnn2cc1Nc1ncc2c(n1)n(C1CCOCC1)c(=O)n2C [AZD7648] + C=CCn1c(=O)c2cnc(Nc3ccc(N4CCN(C)CC4)cc3)nc2n1-c1cccc(C(C)(C)O)n1 [AZD1775] (first compound max 10 µM, partner max 1 µM) a recorded Bliss excess greater than or equal to 0.02?
not met

Values were extracted from the supplement of paper PMC11061612.
